- Test system: HL-60 (Leukemia)
- Experiment: Cytotoxicity, MTT assay, HL-60
- Type: cell-based
- Experimental setup: Homo sapiens, 10 μM, read-out: Cell Growth Inhibition (%)
Measured inhibition at 10 µM determines class: low bracket (below 20%), middle bracket (20% to below 30%), high bracket (30% or more)

Study these solved cases before continuing.
# Compound, Class label
rows = [
    ("Cc1oc2c(C3CCN(C)CC3O)c(O)cc(O)c2c(=O)c1C(O)c1cccc(Cl)c1 (stereo not drawn)", "middle bracket"),
    ("Cc1cc(=O)c2c(O)cc(OC/C=C/c3ccccc3)c(C3CCN(C)CC3O)c2o1 (stereo not drawn)", "middle bracket"),
    ("CN1CCC(c2c(O)cc(O)c3c(=O)cc(/C=C/c4c5ccccc5cc5ccccc45)oc23)C(O)C1 (stereo not drawn)", "low bracket"),
    ("COc1ccc(COc2cc(O)c3c(=O)cc(C)oc3c2C2CCN(C)CC2O)cc1 (stereo not drawn)", "middle bracket"),
    ("Cc1cc(=O)c2c(O)cc(O)c(C3CCN(C)CC3O)c2o1 (stereo not drawn) [Compound 1, reference compound]", "high bracket"),
]

Qu. Category lookup for the compound Cc1cc(=O)c2c(O)cc(OC(=O)c3ccccc3C)c(C3CCN(C)CC3O)c2o1 (stereo not drawn)
Ans. low bracket

Qu. Category lookup for the compound Cc1cc(=O)c2c(O)cc(OCc3ccccc3Br)c(C3CCN(C)CC3O)c2o1 (stereo not drawn)
Ans. low bracket

Qu. Category lookup for the compound Cc1oc2c(C3CCN(C)CC3O)c(O)cc(O)c2c(=O)c1C(O)c1c(F)cccc1Cl (stereo not drawn)
Ans. middle bracket

---

- Test system: HL-60 (Leukemia)
- Experiment: Cytotoxicity, MTT assay, HL-60
- Format: cell-based
- Experimental setup: Homo sapiens
Form field: IC50 (one value per entry).
State just the number; it will be interpreted in µM.

Before answering, review these 5 worked examples.
# Molecule, Measured attribute, Reported value
data = [
    ("CN1CCC(c2c(O)cc(O)c3c(=O)cc(/C=C/c4c(Cl)cccc4Cl)oc23)C(O)C1 (centres unmarked)", "IC50", 0.9),
    ("CN1CCC(c2c(O)cc(O)c3c(=O)cc(/C=C/c4c(F)c(F)c(F)c(F)c4F)oc23)C(O)C1 (centres unmarked)", "IC50", 3),
    ("Cc1oc2c(C3CCN(C)CC3O)c(O)cc(O)c2c(=O)c1C(O)c1ccc(Cl)cc1 (centres unmarked)", "IC50", 11),
    ("CN1CCC(c2c(O)cc(O)c3c(=O)cc(/C=C/c4ccc(Cl)cc4)oc23)C(O)C1 (centres unmarked)", "IC50", 8),
    ("Cc1cc(=O)c2c(O)cc(OCc3nc4ccccc4[nH]3)c(C3CCN(C)CC3O)c2o1 (centres unmarked)", "IC50", 8),
]

Entry CN1CCC(c2c(O)cc(O)c3c(=O)cc(/C=C/c4ccccc4)oc23)C(O)C1 (centres unmarked) , HL-60 (Leukemia) data, IC50 value: 1

Entry CN1CCC(c2c(O)cc(O)c3c(=O)cc(/C=C/c4ccccc4F)oc23)C(O)C1 (centres unmarked) , HL-60 (Leukemia) data, IC50 value: 8

Entry Cc1cc(=O)c2c(O)cc(O)c(C3CCN(C)CC3O)c2o1 (centres unmarked) [Compound 1, reference compound] , HL-60 (Leukemia) data, IC50 value: 6
